The reported measurements were obtained from paper PMC8162404.

target: RecQ-WH (Escherichia coli, UniProt P15043); construct: coding for residues 408– 523 of E. coli RecQ; made in house; host or cells: E. coli BL21(DE3); experiment: Competition pull-down with native ligand SSB-Ct8; format: binding, E. coli; conditions: H14 library; competitor peptide 200 µM; read-out: Surface mapping KD (apparent), competition
Sequence (P15043 408-523): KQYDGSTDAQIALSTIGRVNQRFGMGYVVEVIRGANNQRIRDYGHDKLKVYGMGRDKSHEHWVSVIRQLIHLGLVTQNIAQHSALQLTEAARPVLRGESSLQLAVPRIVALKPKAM
Hi! Could you tag entries with Kd below 300 µM as Met, and those at or above as Not met? Much appreciated.

Dear colleague, could you confirm whether Kd of CC[C@H](C)[C@@H](CC(=O)N[C@H]1CCCC[C@@H]1C(=O)N[C@H]1CCCC[C@@H]1C(=O)N[C@H](CC(=O)N[C@H]1CCCC[C@@H]1C(N)=O)Cc1ccccc1)NC(=O)[C@H]1CCCC[C@@H]1N [H14 IF] falls below 300 µM? Thanks.
Not met

Dear colleague, could you confirm whether Kd of CC(C)C[C@@H](CC(=O)N[C@H]1CCCC[C@@H]1C(N)=O)NC(=O)[C@H]1CCCC[C@@H]1NC(=O)[C@H]1CCCC[C@@H]1NC(=O)C[C@H](Cc1c[nH]c2ccccc12)NC(=O)[C@H]1CCCC[C@@H]1N [H14 WL] falls below 300 µM? Thanks.
Met

Dear colleague, could you confirm whether Kd of NC(=O)[C@H]1CCCC[C@@H]1NC(=O)C[C@H](Cc1c[nH]c2ccccc12)NC(=O)[C@H]1CCCC[C@@H]1NC(=O)[C@H]1CCCC[C@@H]1NC(=O)C[C@H](Cc1ccccc1)NC(=O)[C@H]1CCCC[C@@H]1N [H14 FW] falls below 300 µM? Thanks.
Met

Dear colleague, could you confirm whether Kd of NC(=O)[C@H]1CCCC[C@@H]1NC(=O)C[C@H](Cc1ccccc1)NC(=O)[C@H]1CCCC[C@@H]1NC(=O)[C@H]1CCCC[C@@H]1NC(=O)C[C@H](Cc1ccc(O)cc1)NC(=O)[C@H]1CCCC[C@@H]1N [H14 YF] falls below 300 µM? Thanks.
Not met

Dear colleague, could you confirm whether Kd of NC(=O)[C@H]1CCCC[C@@H]1NC(=O)C[C@H](Cc1c[nH]c2ccccc12)NC(=O)[C@H]1CCCC[C@@H]1NC(=O)[C@H]1CCCC[C@@H]1NC(=O)C[C@H](Cc1ccc(O)cc1)NC(=O)[C@H]1CCCC[C@@H]1N [H14 YW] falls below 300 µM? Thanks.
Met

Dear colleague, could you confirm whether Kd of NC(=O)[C@H]1CCCC[C@@H]1NC(=O)C[C@H](CO)NC(=O)[C@H]1CCCC[C@@H]1NC(=O)[C@H]1CCCC[C@@H]1NC(=O)C[C@H](Cc1c[nH]c2ccccc12)NC(=O)[C@H]1CCCC[C@@H]1N [H14 WS] falls below 300 µM? Thanks.
Not met

Dear colleague, could you confirm whether Kd of CC(C)C[C@@H](CC(=O)N[C@H]1CCCC[C@@H]1C(=O)N[C@H]1CCCC[C@@H]1C(=O)N[C@H](CC(=O)N[C@H]1CCCC[C@@H]1C(N)=O)Cc1c[nH]c2ccccc12)NC(=O)[C@H]1CCCC[C@@H]1N [H14 LW] falls below 300 µM? Thanks.
Not met

Dear colleague, could you confirm whether Kd of CC[C@H](C)[C@@H](CC(=O)N[C@H]1CCCC[C@@H]1C(N)=O)NC(=O)[C@H]1CCCC[C@@H]1NC(=O)[C@H]1CCCC[C@@H]1NC(=O)C[C@H](Cc1ccccc1)NC(=O)[C@H]1CCCC[C@@H]1N [H14 FI] falls below 300 µM? Thanks.
Met

Dear colleague, could you confirm whether Kd of CC[C@H](C)[C@@H](CC(=O)N[C@H]1CCCC[C@@H]1C(=O)N[C@H]1CCCC[C@@H]1C(=O)N[C@H](CC(=O)N[C@H]1CCCC[C@@H]1C(N)=O)Cc1c[nH]c2ccccc12)NC(=O)[C@H]1CCCC[C@@H]1N [H14 IW] falls below 300 µM? Thanks.
Not met

Dear colleague, could you confirm whether Kd of NC(=O)[C@H]1CCCC[C@@H]1NC(=O)C[C@H](Cc1ccccc1)NC(=O)[C@H]1CCCC[C@@H]1NC(=O)[C@H]1CCCC[C@@H]1NC(=O)C[C@H](Cc1ccccc1)NC(=O)[C@H]1CCCC[C@@H]1N [H14 FF] falls below 300 µM? Thanks.
Not met

Dear colleague, could you confirm whether Kd of NC(=O)[C@H]1CCCC[C@@H]1NC(=O)C[C@H](CC(=O)O)NC(=O)[C@H]1CCCC[C@@H]1NC(=O)[C@H]1CCCC[C@@H]1NC(=O)C[C@H](Cc1c[nH]c2ccccc12)NC(=O)[C@H]1CCCC[C@@H]1N [H14 WD] falls below 300 µM? Thanks.
Not met

Dear colleague, could you confirm whether Kd of CC[C@H](C)[C@@H](CC(=O)N[C@H]1CCCC[C@@H]1C(=O)N[C@H]1CCCC[C@@H]1C(=O)N[C@H](CC(=O)N[C@H]1CCCC[C@@H]1C(N)=O)CC(C)C)NC(=O)[C@H]1CCCC[C@@H]1N [H14 IL] falls below 300 µM? Thanks.
Met

Dear colleague, could you confirm whether Kd of CC(C)[C@@H](CC(=O)N[C@H]1CCCC[C@@H]1C(N)=O)NC(=O)[C@H]1CCCC[C@@H]1NC(=O)[C@H]1CCCC[C@@H]1NC(=O)C[C@H](Cc1ccc(O)cc1)NC(=O)[C@H]1CCCC[C@@H]1N [H14 YV] falls below 300 µM? Thanks.
Not met

Dear colleague, could you confirm whether Kd of CC(C)C[C@@H](CC(=O)N[C@H]1CCCC[C@@H]1C(=O)N[C@H]1CCCC[C@@H]1C(=O)N[C@H](CC(=O)N[C@H]1CCCC[C@@H]1C(N)=O)Cc1ccccc1)NC(=O)[C@H]1CCCC[C@@H]1N [H14 LF] falls below 300 µM? Thanks.
Not met

Dear colleague, could you confirm whether Kd of CC(C)C[C@@H](CC(=O)N[C@H]1CCCC[C@@H]1C(N)=O)NC(=O)[C@H]1CCCC[C@@H]1NC(=O)[C@H]1CCCC[C@@H]1NC(=O)C[C@H](Cc1ccccc1)NC(=O)[C@H]1CCCC[C@@H]1N [H14 FL] falls below 300 µM? Thanks.
Met

Dear colleague, could you confirm whether Kd of NC(=O)[C@H]1CCCC[C@@H]1NC(=O)C[C@H](Cc1c[nH]c2ccccc12)NC(=O)[C@H]1CCCC[C@@H]1NC(=O)[C@H]1CCCC[C@@H]1NC(=O)C[C@H](Cc1c[nH]c2ccccc12)NC(=O)[C@H]1CCCC[C@@H]1N [H14 WW] falls below 300 µM? Thanks.
Met

Dear colleague, could you confirm whether Kd of CC(C)C[C@@H](CC(=O)N[C@H]1CCCC[C@@H]1C(N)=O)NC(=O)[C@H]1CCCC[C@@H]1NC(=O)[C@H]1CCCC[C@@H]1NC(=O)C[C@H](CC(C)C)NC(=O)[C@H]1CCCC[C@@H]1N [H14 LL] falls below 300 µM? Thanks.
Met
